assay: Confirmation screen for delayed death inhibitors of the malarial parasite plastid, 48 hour incubation; further: potency means the concentration at half of the fitted maximal effect; nearly all actives have a fitted effect of over 65% in size; conditions: P. falciparum-infected erythrocytes, luciferase growth; series mostly up to 28.7 µM
About 1,200 (52%) of roughly 2,300 compounds were called active. Another 34% or so got no clear call; they are omitted. So high a share suggests a set chosen from earlier hits. The list shows a part of the results.
// Potency lookup, one value per entry

Guide cases for Potency, answers given:
Compound	Property Measured	Measurement
Cc1cccc(Nc2nc3c(S(=O)(=O)c4ccccc4)nnn3c3ccccc23)c1C	Potency	4.47 µM (active)
NC1=NC[C@@H](Cc2ccc(O)cc2)N1CCc1cccc(F)c1	Potency	10 µM (active)

Qu. So what does the record say about Potency for Cc1cc(C(=O)N2CCCC(N3CCN(c4cccc(C(F)(F)F)c4)CC3)C2)c(C)o1 (stereo not given) ?
Ans. 12.6 µM (active)

Qu. Same question, CCCCCCCNC(=O)C1(CC2CC(c3ccc(Cl)cc3)=NO2)CCN(C(=O)C2CCCC2)CC1 (stereo not given) this time
Ans. 14.1 µM (active)

Qu. Same question, "NC1=NC[C@H](Cc2ccc(O)cc2)N1CCc1cccc(F)c1" this time
Ans. 7.94 µM (active)
